assay: logP determination by HPLC on a reversed-phase column (C 18), EEC Directive 79/831 Annex V.A8
Assay type: physicochemical
measurement parameters: value marked [c]
readout type: logP

CC(=NOCC1(CON=C(C)c2ccc(C)c(C)n2)CCCCC1)c1ccc(C)c(C)n1 :: 7.36^[c]
CC(=NOCC(C)(C)CON=C(C)c1cc(C2CC2)cc(C)n1)c1cccc(C)n1 :: 6.57^[c]

**Q:** Fill in: logP of CC(=NOc1nc(Cl)nc(ON=C(C)c2cccc(C)n2)c1Cl)c1cccc(C)n1 (single isomer, unassigned) [compound 779] is ___
**A:** 5.09^[c]

**Q:** Also CC(=NOCC1(CON=C(C)c2cc(C)cc(C)n2)COC(=O)N1)c1cc(C)cc(C)n1 (stereo not shown) ?
**A:** 3,55^[c]

**Q:** What would you report for CC(=NOc1nc(Cl)nc(ON=C(C)c2cccc(C)n2)c1Cl)c1cccc(C)n1 (single isomer, unassigned) [compound 780] ?
**A:** 4.88^[c]

**Q:** Check CC(=NOCC(CON=C(C)c1ccc(C)c(C)n1)C(C)(C)C)c1ccc(C)c(C)n1 (stereo not shown) too.
**A:** 7.36^[c]

**Q:** // same read-out, input: CC(=NOCC1(CON=C(C)c2nc(C)ccc2C)CC1)c1nc(C)ccc1C (single isomer, unassigned) [compound 765]
**A:** 4.95^[c]

###

assay: logP determination by HPLC on a reversed-phase column (C 18), EEC Directive 79/831 Annex V.A8
Format: physicochemical
measurement parameters: value marked [b]
readout type: logP

**Q:** Name the reported logP value associated with the molecule CCOC(=O)C(C)(CON=C(C)c1nc(C)ccc1C)CON=C(C)c1nc(C)ccc1C (stereo not shown) [compound 884]
**A:** 2.47^[b]

**Q:** Another molecule to check: CC(=NOCC(C)CON=C(C)c1cccc2ccccc12)c1cccc(C)n1 (stereo not shown)
**A:** 5.36^[b]

**Q:** CC(=NOCC(C)CON=C(C)c1nc(C)ccc1C)c1nc(C)ccc1C (single isomer, unassigned) [Compound 267] , same question.
**A:** 2.5^[b] (isomer B)

**Q:** Next entry: CC(=NOCC(C)(C)CON=C(C)c1cccc(C)n1)c1cnccn1
**A:** 3.70^[b]

###

assay: logP determination by HPLC on a reversed-phase column (C 18), EEC Directive 79/831 Annex V.A8
Assay type: physicochemical
measurement parameters: value marked [b]
Description: The stated logP values were determined in accordance with EEC Directive 79/831 Annex V.A8 by HPLC (high performance liquid chromatography) on a reversed-phase column (C 18). Temperature: 43° C.
The entries below are paired with their reported logP.

A selection of reference data follows.
CC(=NOCC(CON=C(C)c1ccc(C)c(C)n1)c1ccccc1)c1ccc(C)c(C)n1 (stereo not shown) :: 4.02^[b]
COCc1nc(C(N)=NOC/C=C/CON=C(N)c2nc(COC)c(C)c(COC)n2)nc(COC)c1C (single isomer, unassigned) [compound 768] :: 1.68^[b] (isomer A)
COc1cc(O)nc(C(C)=NOCC(C)CON=C(C)c2nc(OC)cc(OC)n2)n1 (stereo not shown) :: 3.05^[b]

With those in mind, consider the next compound.
**Q:** GET /values?readout=logP&item= CC(=NOCCCCON=C(C)c1cc(C)cc(C)n1)c1cccc(C)n1
**A:** 2.41^[b]
